Tested on: L1210
Assay: Cytotoxicity against mouse L1210 cells
Type: functional
Conditions: read-out: ED50 (the source's name)
value kind: EC50 (µM)

[[record]]
structure_string = "Cc1cn([C@H]2C[C@H](NC(=O)N(C)N=O)[C@@H](CO)O2)c(=O)[nH]c1=O"
unit_symbol = "µM"
numeric_result = 1

